Entries annotated with measured IC50
Molecular target: αvβ1 (Homo sapiens, UniProt P05556+P06756)
Sequence (P06756 31-992 limits assumed): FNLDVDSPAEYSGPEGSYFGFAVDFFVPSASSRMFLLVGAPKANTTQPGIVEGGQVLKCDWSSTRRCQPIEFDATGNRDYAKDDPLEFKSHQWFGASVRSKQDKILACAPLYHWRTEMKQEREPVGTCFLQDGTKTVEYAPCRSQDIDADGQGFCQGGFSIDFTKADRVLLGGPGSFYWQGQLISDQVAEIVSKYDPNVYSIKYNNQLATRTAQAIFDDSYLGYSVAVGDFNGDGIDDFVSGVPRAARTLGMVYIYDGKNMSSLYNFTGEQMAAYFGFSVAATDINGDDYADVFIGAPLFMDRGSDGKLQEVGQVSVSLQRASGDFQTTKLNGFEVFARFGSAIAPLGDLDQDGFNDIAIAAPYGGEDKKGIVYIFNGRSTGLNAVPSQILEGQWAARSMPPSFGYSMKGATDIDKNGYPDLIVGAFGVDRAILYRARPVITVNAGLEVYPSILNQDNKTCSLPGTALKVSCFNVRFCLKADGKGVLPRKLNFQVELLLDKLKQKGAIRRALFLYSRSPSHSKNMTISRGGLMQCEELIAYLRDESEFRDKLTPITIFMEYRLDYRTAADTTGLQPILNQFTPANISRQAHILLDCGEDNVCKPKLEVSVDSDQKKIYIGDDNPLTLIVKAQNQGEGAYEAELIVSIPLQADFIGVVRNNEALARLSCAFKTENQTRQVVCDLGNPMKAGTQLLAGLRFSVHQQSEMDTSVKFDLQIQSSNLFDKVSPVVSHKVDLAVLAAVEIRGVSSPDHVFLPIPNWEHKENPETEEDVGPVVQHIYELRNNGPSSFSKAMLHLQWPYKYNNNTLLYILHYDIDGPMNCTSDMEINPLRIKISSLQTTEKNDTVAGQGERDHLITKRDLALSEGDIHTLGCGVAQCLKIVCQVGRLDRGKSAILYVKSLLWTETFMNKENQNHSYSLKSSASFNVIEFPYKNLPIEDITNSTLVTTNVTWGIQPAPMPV
Sequence (P05556 21-728 limits assumed): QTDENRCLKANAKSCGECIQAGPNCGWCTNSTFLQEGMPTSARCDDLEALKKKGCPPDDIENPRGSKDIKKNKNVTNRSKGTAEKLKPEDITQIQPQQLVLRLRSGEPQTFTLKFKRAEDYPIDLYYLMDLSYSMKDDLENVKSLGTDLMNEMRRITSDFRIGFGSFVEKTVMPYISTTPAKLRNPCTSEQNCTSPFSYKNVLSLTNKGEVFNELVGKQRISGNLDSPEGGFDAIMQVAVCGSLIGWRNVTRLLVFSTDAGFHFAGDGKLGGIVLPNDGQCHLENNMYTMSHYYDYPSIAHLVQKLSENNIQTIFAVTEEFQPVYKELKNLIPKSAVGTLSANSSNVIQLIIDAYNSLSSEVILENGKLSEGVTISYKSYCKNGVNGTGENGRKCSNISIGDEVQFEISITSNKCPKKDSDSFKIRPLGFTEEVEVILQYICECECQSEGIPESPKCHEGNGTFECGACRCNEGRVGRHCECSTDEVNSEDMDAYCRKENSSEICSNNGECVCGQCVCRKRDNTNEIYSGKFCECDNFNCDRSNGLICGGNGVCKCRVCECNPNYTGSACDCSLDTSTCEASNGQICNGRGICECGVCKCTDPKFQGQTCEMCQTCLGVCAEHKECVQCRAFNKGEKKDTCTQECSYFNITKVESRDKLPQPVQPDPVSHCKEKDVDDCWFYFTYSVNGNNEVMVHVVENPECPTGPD
Test: Solid Phase Integrin αvβ1 Assay
Reported Property: IC50

{"columns": ["Molecule", "Recorded Result"],
 "data": [
  ["O=C(NC[C@H](Nc1cccc2ccccc12)C(=O)O)[C@@H]1CCCN(CCCc2ccc3c(n2)NCCC3)C1", "< 0.1 µM"],
  ["O=C(N[C@H](CCO[C@@H]1CCCN(CCCc2ccc3c(n2)NCCC3)C1)C(=O)O)c1c(F)cc(N2CCOCC2)cc1F", "> 1 µM"],
  ["O=C(NC[C@@H](C(=O)O)c1cc(F)cc(-c2ccccc2)c1)[C@@H]1CCCN(CCCc2ccc3c(n2)NCCC3)C1", "< 0.1 µM"],
  ["O=C(O)[C@@H](CCO[C@@H]1CCCN(CCCc2ccc3c(n2)NCCC3)C1)c1cccc2c1cnn2CC1CC1", "0.1 to 1 µM"],
  ["Cc1csc2c(N[C@@H](CCO[C@@H]3CCCN(CCCc4ccc5c(n4)NCCC5)C3)C(=O)O)ncnc12", "0.1 to 1 µM"],
  ["O=C(O)C[C@H](CO[C@@H]1CCCN(CCCc2ccc3c(n2)NCCC3)C1)c1cc(F)cc(C2CC2)c1", "< 0.1 µM"],
  ["CNC(=O)[C@@H]1CN(C(=O)CCCc2ccc3c(c2)NCCC3)C[C@H]1NC(=O)CC(CC(=O)O)c1ccccc1 (stereo partly drawn)", "< 0.1 µM"],
  ["O=C(N[C@@H](CNC(=O)[C@@H]1CCCN(CCCc2ccc3c(n2)NCCC3)C1)C(=O)O)c1ccc(F)c(Cl)c1", "< 0.1 µM"],
  ["O=C(NC[C@H](C(=O)O)c1cccc(-c2ccccc2)c1)[C@@H]1CCCN(CCCc2ccc3c(n2)NCCC3)C1", "< 0.1 µM"],
  ["O=C(NC[C@H](C(=O)O)c1cccc(C2CC2)c1)[C@@H]1CCCN(CCCc2ccc3c(n2)NCCC3)C1", "0.1 to 1 µM"],
  ["O=C(O)C[C@H](NC(=O)[C@@H]1CCCN(CCCc2ccc3c(n2)NCCC3)C1)c1cccc2c1OCO2", "< 0.1 µM"],
  ["O=C(NC[C@H](C(=O)O)c1cccc2cnn([C@@H]3CCOC3)c12)[C@@H]1CCCN(CCCc2ccc3c(n2)NCCC3)C1", "< 0.1 µM"],
  ["CC1(C)CN(c2cc([C@H](CO[C@@H]3CCCN(CCCc4ccc5c(n4)NCCC5)C3)CC(=O)O)ccc2F)CCO1", "< 0.1 µM"],
  ["CC1(C)CCCN(c2cccc([C@H](CC(=O)O)NC(=O)[C@@H]3CCCN(CCCc4ccc5c(n4)NCCC5)C3)c2)C1", "< 0.1 µM"],
  ["O=C(N[C@@H](CNC(=O)[C@@H]1CCCN(CCCc2ccc3c(n2)NCCC3)C1)C(=O)O)c1ccc(Cl)cc1", "< 0.1 µM"],
  ["O=C(NC[C@H](C(=O)O)c1cccc2n[nH]cc12)[C@@H]1CCCN(CCCc2ccc3c(n2)NCCC3)C1", "0.1 to 1 µM"],
  ["O=C(O)C[C@@H](CO[C@@H]1CCCN(CCCc2ccc3c(n2)NCCC3)C1)c1cccc(-n2cccn2)c1", "0.1 to 1 µM"],
  ["O=C(O)CC(CC(=O)N[C@@H]1CCN(C(=O)CCCc2ccc3c(n2)NCCC3)C1)c1ccccc1 (stereo partly drawn)", "< 0.1 µM"],
  ["O=C(O)[C@H](CCO[C@@H]1CCCN(CCCc2ccc3c(n2)NCCC3)C1)Nc1ncnc2ccsc12", "0.1 to 1 µM"],
  ["O=C(O)CC(CO[C@@H]1CCCN(Cc2ccc3c(n2)NCCC3)C1)c1ccccc1 (stereo partly drawn)", "> 1 µM"],
  ["O=C(O)[C@H](CO[C@@H]1CCCN(Cc2ccc3c(n2)NCCC3)C1)c1ccccc1", "> 1 µM"]
]}
